Known pKd of a selection of binders
# SYSTEM TESTED: T1, GST-KIAA0807(S) PDZ domain 1 (Homo sapiens (Human)), Q6P0Q8
# T1 chain: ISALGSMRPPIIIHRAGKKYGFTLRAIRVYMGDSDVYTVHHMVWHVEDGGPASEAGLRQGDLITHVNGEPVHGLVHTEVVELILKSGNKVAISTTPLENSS
# MEASUREMENT DESCRIPTION: G assay titration, PDZ 5 ug/ml
pKd: −log10 of the molar value.
PROPERTY: pKd

BINDER: RELVDRGEVRQFTLRHWLKV (modifications not checked) [Dopamine transporter]
TEST VALUE: 6.40

BINDER: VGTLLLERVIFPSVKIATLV (modifications not checked) [AdenoE4 typ9]
TEST VALUE: 6.70

BINDER: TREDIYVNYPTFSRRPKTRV (modifications not checked) [DNAM-1]
TEST VALUE: 5.70
